# test_name: Bacterial cytotoxicity, strain TA100
# Format: cell-based
# details: Salmonella typhimurium, bacterial tester strain TA100 without S9; strain TA100 – S9, 1.25E-06 M; read-out: Cytotoxicity (% of Control Values)
observed_property: viability at 1.25 µM (%)
Express the result in % but write the number alone.

Query string: Sample OCCc1cc(-c2cncc(OC[C@@H]3CCN3)c2)on1 — what was its viability at 1.25 µM?
Result string: 102

---

# test_name: Bacterial cytotoxicity, strain TA100
# Assay type: cell-based
# details: Salmonella typhimurium, bacterial tester strain TA100 without S9; strain TA100 – S9, 1.0E-05 M; read-out: Cytotoxicity (% of Control Values)
observed_property: viability at 10 µM (%)
Express the result in % but write the number alone.

Query string: Sample OCCc1cc(-c2cncc(OC[C@@H]3CCN3)c2)on1 [LF-3-88] — what was its viability at 10 µM?
Result string: 103
